Target system: AMPA receptor (human GluR1 flip/stargazin expressed in CHO-K1 cells) (Homo sapiens)
Construct: expressed in transfected cells; host or cells: CHO-K1
Sequence (P42261 19-906 isoform P42261-2 limits assumed): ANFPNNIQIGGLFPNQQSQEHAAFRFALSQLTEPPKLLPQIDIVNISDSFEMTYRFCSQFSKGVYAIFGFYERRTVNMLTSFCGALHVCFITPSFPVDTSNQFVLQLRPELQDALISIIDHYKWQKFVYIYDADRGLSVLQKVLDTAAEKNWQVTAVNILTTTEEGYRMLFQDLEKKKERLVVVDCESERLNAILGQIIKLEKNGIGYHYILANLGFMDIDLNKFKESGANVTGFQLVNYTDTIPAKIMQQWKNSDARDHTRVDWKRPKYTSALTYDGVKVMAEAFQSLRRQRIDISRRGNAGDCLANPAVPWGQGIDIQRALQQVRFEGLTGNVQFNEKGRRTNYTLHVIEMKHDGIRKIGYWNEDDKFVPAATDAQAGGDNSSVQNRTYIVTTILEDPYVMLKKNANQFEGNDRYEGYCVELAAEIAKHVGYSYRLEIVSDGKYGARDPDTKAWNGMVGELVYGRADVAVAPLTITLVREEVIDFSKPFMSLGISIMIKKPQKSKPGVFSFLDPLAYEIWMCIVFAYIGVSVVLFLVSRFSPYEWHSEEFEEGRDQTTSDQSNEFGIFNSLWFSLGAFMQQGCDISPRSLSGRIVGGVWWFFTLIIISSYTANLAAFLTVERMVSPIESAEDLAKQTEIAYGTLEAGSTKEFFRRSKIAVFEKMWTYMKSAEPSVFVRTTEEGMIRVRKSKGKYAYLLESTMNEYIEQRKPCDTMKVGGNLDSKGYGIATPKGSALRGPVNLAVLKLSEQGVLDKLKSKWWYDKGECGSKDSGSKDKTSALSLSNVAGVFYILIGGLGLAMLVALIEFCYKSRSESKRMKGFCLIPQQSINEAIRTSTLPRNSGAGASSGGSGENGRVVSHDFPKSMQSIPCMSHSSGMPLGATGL
Sequence (Q9Y698 whole entry partner): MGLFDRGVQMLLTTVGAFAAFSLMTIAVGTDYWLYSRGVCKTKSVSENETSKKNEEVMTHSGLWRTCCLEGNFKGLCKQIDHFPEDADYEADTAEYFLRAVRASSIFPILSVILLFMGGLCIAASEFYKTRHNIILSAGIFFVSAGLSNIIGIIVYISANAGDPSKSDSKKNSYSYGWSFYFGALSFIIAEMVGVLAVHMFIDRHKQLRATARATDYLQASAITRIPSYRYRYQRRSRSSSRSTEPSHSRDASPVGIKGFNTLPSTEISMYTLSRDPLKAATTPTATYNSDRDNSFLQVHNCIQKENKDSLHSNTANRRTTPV
Assay protocol: AMPA receptor function enhancing activity using calcium influx as index
Format: cell-based
Particulars: test compound 30 μM with glutamic acid final 3 mM, change in fluorescence in 3 min, 100% = 3 mM glutamic acid + 300 μM cyclothiazide, 0% = 3 mM glutamic acid only
Reported metric: activity (%)
Form entry: value (%) — number only.

Molecule	Output unit	activity (%)
O=S1(=O)CCN2CCNC(c3ccc(-c4ccccc4)c(F)c3)C2=N1 (stereo not drawn) [Example 345]	%	63
Cc1ccc(C(C)(C)c2ccc(C3=CC=CN4CCS(=O)(=O)N=C34)cc2)cc1 [Example 329]	%	82

Request: Fill in reported activity (%) for this entry: O=S1(=O)CCN2C=CC=C(c3ccc(O)cc3)C2=N1 [Example 87]
Response: 51

Request: Please give the documented activity (%) of O=S1(=O)CCN2C=CC=C(c3ccc(OC(F)(F)F)cc3)C2=N1 [Example 34]
Response: 78

Request: Annotate the molecule Cc1ccc(-c2ccc(C3CCCN4CCS(=O)(=O)N=C34)cc2)cc1 (stereo not drawn) [Example 105] with its measured activity (%).
Response: 87

Request: Quick one: give measured activity (%) for Cc1cc(C(F)(F)F)ccc1Oc1ccc(C2CCCN3CCS(=O)(=O)N=C23)cc1 (stereo not drawn) [Example 122]
Response: 58

Request: Please give measured activity (%) of the following entry: O=S1(=O)CCN2CCCC(c3ccc(-c4ccccc4)c(F)c3)C2=N1 (stereo not drawn) [Example 96]
Response: 74

Request: Indicate the recorded activity (%) value for this molecule: COc1cccc(Oc2ccc(C3CCCN4CCS(=O)(=O)N=C34)cc2)c1 (stereo not drawn) [Example 98]
Response: 71

Request: Report measured activity (%); entry is Cc1nc2cc(OC3=CC=CN4CCS(=O)(=O)N=C34)ccc2s1 [Example 24]
Response: 78
